tgt: CXCR4 (Homo sapiens, UniProt P61073)
Sequence (P61073 whole entry): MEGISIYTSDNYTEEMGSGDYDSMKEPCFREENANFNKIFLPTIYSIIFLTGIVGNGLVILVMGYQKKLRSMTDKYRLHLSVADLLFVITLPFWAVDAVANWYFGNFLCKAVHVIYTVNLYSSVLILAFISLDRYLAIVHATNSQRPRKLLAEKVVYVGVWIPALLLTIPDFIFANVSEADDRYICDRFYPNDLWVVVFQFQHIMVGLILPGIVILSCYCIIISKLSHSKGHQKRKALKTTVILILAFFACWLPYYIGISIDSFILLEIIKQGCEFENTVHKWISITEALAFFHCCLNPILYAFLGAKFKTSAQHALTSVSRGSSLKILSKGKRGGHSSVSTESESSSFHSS
method: Calcium imaging ((Ca)i mobilization) assay, fura-2, C8161 melanoma cells
Format: cell-based
Design: human melanoma cell line C8161 was initially used, which expresses numerous human CXCR4 receptors; endogenous in cells; host or cells: C8161 human melanoma cells
conditions: C8161 cells; AMD3100 1 μM where stated
assay.endpoint: compound's (Ca)i response in presence of CXCR4 antagonist AMD3100

{"compound": "CCCn1nc(C(=O)N2CCCCC2)c2c1CCC(NCCc1cccnc1)C2 (stereo not drawn) [NUCC-0054118]", "result": "inhibited by AMD3100"}
{"compound": "CCCn1nc(C(=O)N(C)C)c2c1CCC(NCc1ccc(F)cc1)C2 (stereo not drawn) [NUCC-0054121]", "result": "inhibited by AMD3100"}
{"compound": "CCCn1nc(C(=O)N2CCCCC2)c2c1CCC(NCCCN1CCOCC1)C2 (stereo not drawn) [NUCC-0054127]", "result": "inhibited by AMD3100"}

---

tgt: CXCR4 (Homo sapiens, UniProt P61073)
method: Calcium imaging ((Ca)i mobilization) assay, fura-2, C8161 melanoma cells
Assay type: cell-based
Set-up: human melanoma cell line C8161 was initially used, which expresses numerous human CXCR4 receptors; endogenous in cells; host or cells: C8161 human melanoma cells
conditions: Table 2; agonist or antagonist
assay.endpoint: Pharmacology

{"molecule": "CCCn1nc(C(=O)N(C)Cc2ccccc2)c2c1CCC(NCCCN1CCOCC1)C2 (stereo not drawn)", "assay.endpoint": "Pharmacology", "result": "Agonist"}
{"molecule": "CCCn1nc(C(=O)N2CCCCC2)c2c1CCC(NCCCN1CCOCC1)C2 (stereo not drawn)", "assay.endpoint": "Pharmacology", "result": "Agonist"}
{"molecule": "CCCn1nc(C(=O)N(C)C)c2c1CCC(NCc1ccc(F)cc1)C2 (stereo not drawn)", "assay.endpoint": "Pharmacology", "result": "Agonist"}
{"molecule": "CCCn1nc(C(=O)N(C)Cc2ccccc2)c2c1CCC(NCc1ccc(F)cc1)C2 (stereo not drawn)", "assay.endpoint": "Pharmacology", "result": "Agonist"}
{"molecule": "COCCn1c(C(=O)OC)c(NC(=O)CCc2ccccc2)c2cc(NCCC(C)c3ccccc3)cnc21 (stereo not drawn)", "assay.endpoint": "Pharmacology", "result": "Agonist"}
{"molecule": "CCCn1nc(C(=O)N(C)Cc2ccccc2)c2c1CCC(NCCc1ccncc1)C2 (stereo not drawn)", "assay.endpoint": "Pharmacology", "result": "Antagonist"}
{"molecule": "Cn1nc(C(=O)N2CCCCC2)c2c1CCC(NCc1ccc(F)cc1)C2 (stereo not drawn)", "assay.endpoint": "Pharmacology", "result": "Antagonist"}
{"molecule": "CCCn1nc(C(=O)N2CCCCC2)c2c1CCC(NCCc1ccncc1)C2 (stereo not drawn)", "assay.endpoint": "Pharmacology", "result": "Agonist"}
{"molecule": "Cc1ncsc1CCn1nc(C(=O)NC2CC2)c2c1CCN(Cc1ccc3c(c1)OCO3)C2", "assay.endpoint": "Pharmacology", "result": "Agonist"}
{"molecule": "COC(=O)c1c(NC(=O)C2CCOC2)c2cc(NCC(C)Cc3ccc4c(c3)OCO4)cnc2n1CCCc1ccccc1 (stereo not drawn)", "assay.endpoint": "Pharmacology", "result": "Antagonist"}
{"molecule": "CCCn1nc(C(=O)N2CCCCC2)c2c1CCC(NCCc1cccnc1)C2 (stereo not drawn)", "assay.endpoint": "Pharmacology", "result": "Agonist"}
{"molecule": "Cn1nc(C(=O)N2CCCCC2)c2c1CCC(NCCCN1CCOCC1)C2 (stereo not drawn)", "assay.endpoint": "Pharmacology", "result": "Antagonist"}
{"molecule": "COCCNC(=O)c1nn(CCC(C)C)c2c1CN(Cc1ncc[nH]1)CC2", "assay.endpoint": "Pharmacology", "result": "Agonist"}
{"molecule": "CCCn1nc(C(=O)N(C)C)c2c1CCC(NCCCN1CCCC1=O)C2 (stereo not drawn)", "assay.endpoint": "Pharmacology", "result": "Agonist"}
{"molecule": "CCCn1nc(C(=O)N2CCCCC2)c2c1CCC(NCc1ccc(F)cc1)C2 (stereo not drawn)", "assay.endpoint": "Pharmacology", "result": "Agonist"}
{"molecule": "CCCn1nc(C(=O)N(C)C)c2c1CCC(NCCc1cccnc1)C2 (stereo not drawn)", "assay.endpoint": "Pharmacology", "result": "Agonist"}
{"molecule": "CN(C)CCNC1CCc2c(c(C(=O)N(C)Cc3ccccc3)nn2C)C1 (stereo not drawn)", "assay.endpoint": "Pharmacology", "result": "Antagonist"}
{"molecule": "CCCn1nc(C(=O)N2CCCCC2)c2c1CCC(NCCCN1CCCC1=O)C2 (stereo not drawn)", "assay.endpoint": "Pharmacology", "result": "Antagonist"}

---

Each item that follows carries a reported pIC50.
tgt: CXCR4 (Homo sapiens, UniProt P61073)
method: Calcium imaging ((Ca)i mobilization) assay, fura-2, C8161 melanoma cells
conditions: C8161 cells; multiple concentrations, dose-response; read-out: estimated IC50 (antagonism of SDF-1 (Ca)i response)
Description: The initial assay for examining the activity of different molecules was based on the fact that activation of CXCR4 receptors produces an increase in the intracellular free Ca^2+ concentration (Ca)i. This signal can easily be observed using a fluorescent Ca^2+ sensing dye such as fura-2. The quantitative nature of this assay makes it ideal for screening purposes. Moreover, the assay can also distinguish potential antagonists from potential agonists. […]
pIC50: −log10 of the molar value.
assay.endpoint: pIC50

{"molecule": "COC(=O)c1c(NC(=O)C2CCOC2)c2cc(NCC(C)Cc3ccc4c(c3)OCO4)cnc2n1CCCc1ccccc1 (stereo not drawn)", "quantitative.readout": 6.00}
{"molecule": "CN(C)CCNC1CCc2c(c(C(=O)N(C)Cc3ccccc3)nn2C)C1 (stereo not drawn)", "quantitative.readout": 6.52}
{"molecule": "CCCn1nc(C(=O)N2CCCCC2)c2c1CCC(NCCCN1CCCC1=O)C2 (stereo not drawn)", "quantitative.readout": 6.00}
